Origin of the recorded values: ChEMBL document CHEMBL1134808

# System: MT4
# procedure-summary: Compound was tested for potency to achieve protection of MT-4 cells from 188L strain of HIV-1 virus
# Type: functional, cell-based
# assay-context: Homo sapiens
Where a name gives a salt, the structure may show the parent alone.
Parameter pIC50: see the listing below.
Recall that pIC50 is obtained by taking minus log10 of the concentration measured in molar.

Example molecules with recorded pIC50:
INSERT INTO assay_data (molecule, observed_property, value_reported) VALUES
  ('CC(C)Nc1cccnc1N1CCN(C(=O)c2cc3cc(NS(C)(=O)=O)ccc3[nH]2)CC1 [DELAVIRDINE MESYLATE]', 'pIC50', 5.90),
  ('N#Cc1ccc(NC(=S)NC(=N)Cc2c(Cl)cccc2Cl)cc1', 'pIC50', 6.50);

# evaluate next
## Task Answer with the recorded pIC50 for the molecule listed here: CC(=O)c1ccc(C)cc1NC(C(N)=O)c1c(Cl)cccc1Cl (stereo not drawn) [LOVIRIDE]
## Result 4.30

====

# System: MT4
# procedure-summary: Compound was tested for potency to achieve protection of MT-4 cells from 100I strain of HIV-1 virus
# Format: functional, cell-based
# assay-context: Homo sapiens
Counter-ions that a name gives are not always drawn.
Parameter IC50: see the listing below.
Form entry: value (nM) — number only.

Example compounds with recorded IC50:
INSERT INTO results (compound, observed_property, value_reported) VALUES
  ('CC(C)Nc1cccnc1N1CCN(C(=O)c2cc3cc(NS(C)(=O)=O)ccc3[nH]2)CC1 [DELAVIRDINE MESYLATE]', 'IC50', 2510),
  ('CC(=O)c1ccc(C)cc1NC(C(N)=O)c1c(Cl)cccc1Cl (stereo not drawn) [LOVIRIDE]', 'IC50', 50);

# evaluate next
## Task Answer with the recorded IC50 for the compound listed here: `N#Cc1ccc(NC(=S)NC(=N)Cc2c(Cl)cccc2Cl)cc1`
## Result 513

====

# Tested on: MT4
# procedure-summary: Compound was tested for potency to achieve protection of MT-4 cells from LAI strain of HIV-1 virus
# Format: functional, cell-based
# assay-context: Homo sapiens
Structures can show the parent of a compound that is named as a salt.
observed-property: pIC50
Recall that pIC50 is obtained by taking minus log10 of the concentration measured in molar.

Example compounds with recorded pIC50:
INSERT INTO results (compound, observed_property, value_reported) VALUES
  ('CC(=O)c1ccc(C)cc1NC(C(N)=O)c1c(Cl)cccc1Cl (stereo not drawn) [LOVIRIDE]', 'pIC50', 7.30),
  ('CC(C)Nc1cccnc1N1CCN(C(=O)c2cc3cc(NS(C)(=O)=O)ccc3[nH]2)CC1 [DELAVIRDINE MESYLATE]', 'pIC50', 7.20);

## Task State pIC50 on MT4. Entry: `N#Cc1ccc(NC(=S)NC(=N)Cc2c(Cl)cccc2Cl)cc1`
## Result 8.52
